- Study system: Melanocortin receptor 4 (Homo sapiens, UniProt P32245)
- Sequence (P32245 whole entry): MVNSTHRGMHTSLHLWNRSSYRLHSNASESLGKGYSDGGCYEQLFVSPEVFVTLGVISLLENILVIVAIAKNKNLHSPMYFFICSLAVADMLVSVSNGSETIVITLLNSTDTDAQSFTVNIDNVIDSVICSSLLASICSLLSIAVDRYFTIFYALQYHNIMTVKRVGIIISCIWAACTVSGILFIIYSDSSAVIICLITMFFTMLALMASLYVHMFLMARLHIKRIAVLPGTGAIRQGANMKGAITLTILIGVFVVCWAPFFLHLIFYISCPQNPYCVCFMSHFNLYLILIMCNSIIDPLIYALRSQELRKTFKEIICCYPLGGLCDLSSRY
- Protocol: Intrinsic activity at human MC4R expressed in HEK293 cells assessed as cAMP accumulation relative to alphaMSH
- Format: functional, cell-based
Intrinsic activity vs 80%: less than gives yes; not less than gives no.

Consider the worked cases shown below.
Molecular string | Study system | Cat
CC(C)C[C@H](NC(=O)CCN(C)C)c1cc(C(F)(F)F)ccc1N1CCN(C(=O)[C@@H]2CN(C(C)C)C[C@H]2c2ccc(Cl)cc2)CC1 | Melanocortin receptor 4 (Homo sapiens, UniProt P32245) | yes
CC(C)N1C[C@@H](C(=O)N2CCN(c3ccccc3CN3CCC(N)CC3)CC2)[C@H](c2ccc(Cl)cc2)C1 | Melanocortin receptor 4 (Homo sapiens, UniProt P32245) | yes
CC(C)C[C@H](NC(=O)[C@@H](C)N)c1cc(C(F)(F)F)ccc1N1CCN(C(=O)[C@@H]2CN(C(C)C)C[C@H]2c2ccc(Cl)cc2)CC1 | Melanocortin receptor 4 (Homo sapiens, UniProt P32245) | no
CC(C)C[C@H](NS(C)(=O)=O)c1cc(C(F)(F)F)ccc1N1CCN(C(=O)[C@@H]2CN(C(C)C)C[C@H]2c2ccc(Cl)cc2)CC1 | Melanocortin receptor 4 (Homo sapiens, UniProt P32245) | no

Query: I wonder whether `CC(C)C[C@H](NC(=O)CN(C)C)c1cc(C(F)(F)F)ccc1N1CCN(C(=O)[C@@H]2CN(C(C)C)C[C@H]2c2ccc(Cl)cc2)CC1` has Intrinsic activity below 80%. Can you tell?
Reply: no

Query: Consider `CC(=O)N[C@H](c1cc(C)ccc1N1CCN(C(=O)[C@@H]2CN(C(C)C)C[C@H]2c2ccc(Cl)cc2)CC1)C(C)C` . Does its Intrinsic activity lie strictly below 80%?
Reply: yes

Query: Intrinsic activity strictly < 80% for this compound? `CC(C)[C@H](NC(=O)CCN)c1cccc(F)c1N1CCN(C(=O)[C@@H]2CN(C(C)C)C[C@H]2c2ccc(Cl)cc2)CC1`
Reply: no
